Experiment: folding stability dG unfold from chymotrypsin proteolysis; higher = more stable
Group membership follows folding stability dG unfold per the scheme low class = under 0.5 kcal/mol, middle class = from 0.5 kcal/mol up to 3 kcal/mol, high class = 3 kcal/mol and over

Class for SAGGKPKEIKIKVEVEEKEVNGKKYLVVKIELEVDGKKIEIELVVEMSEEEKEKAKKLAEELLKKLKSAGGS [r8_480_TrROS_Hall] ? middle class

###

Assay: folding stability dG unfold (combined trypsin and chymotrypsin); higher = more stable
Class Fulfilled: folding stability dG unfold at least 0.8 kcal/mol. Class Not fulfilled: folding stability dG unfold below 0.8 kcal/mol.

QUERY_SEQUENCE	QUALITATIVE_LABEL
SAGNSNTRYIVRIKIKKYNPETGKIEEIEIDVPISDDDLNIPVEKIIEALKKAFPNTEIEAEITKVPASAGG [r19_189_TrMRF]	Fulfilled
SAGGGMKKYTESTVPLPPGRPDVVERLRAEYPNLEVEREGPADTGTLPTTVKVPAPDGSPLASIELGSAGGS [r8_267_JUSTAS]	Not fulfilled

Hello, I need to know if SAGGSAGGSAGGEVEVPKDASLVVTYPNGERKEVPVEDKVPVKGLPVYLLGPDGTLREIDSAGGSAGGSAGG [r7_54_TrMRF] has measured folding stability dG unfold not below 0.8 kcal/mol. Thanks! Not fulfilled

Textbook exercise: given the entry SAGGSAGGSAGMEMKLRPEPVVEVTPTVTTEPDPSLGTTVTTTTYTFDNGEVKTETDTGGSAGGSAGGSAGG [r11_463_JUSTAS] , state whether its folding stability dG unfold is greater than or equal to 0.8 kcal/mol. Not fulfilled

Please check the record SAGGSAGMPKVRIPIEEDPENGNILIRVKMPNSGREHEYHIPGNLKEAKENFEDHFGFDITDVEIWSAGGSA [r15_101_TrROS] and state if its folding stability dG unfold is at or above 0.8 kcal/mol. Not fulfilled

Test whether the sequence SAGMDPSDPNSITTLTTEVEPLPDGSTRVTTYTKLPDGTIVKNVTTLDPAGNVLTTTTTPIPPEALNASAGG [r19_285_JUSTAS] records folding stability dG unfold of 0.8 kcal/mol or higher. Fulfilled
